# tested-system: Casein kinase I isoform gamma-3 (Homo sapiens) (UniProt Q9Y6M4);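 note: mean inhibition of CK1-g3, GSK PKIS screen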
# Sequence (Q9Y6M4 whole entry, looked up, canonical isoform): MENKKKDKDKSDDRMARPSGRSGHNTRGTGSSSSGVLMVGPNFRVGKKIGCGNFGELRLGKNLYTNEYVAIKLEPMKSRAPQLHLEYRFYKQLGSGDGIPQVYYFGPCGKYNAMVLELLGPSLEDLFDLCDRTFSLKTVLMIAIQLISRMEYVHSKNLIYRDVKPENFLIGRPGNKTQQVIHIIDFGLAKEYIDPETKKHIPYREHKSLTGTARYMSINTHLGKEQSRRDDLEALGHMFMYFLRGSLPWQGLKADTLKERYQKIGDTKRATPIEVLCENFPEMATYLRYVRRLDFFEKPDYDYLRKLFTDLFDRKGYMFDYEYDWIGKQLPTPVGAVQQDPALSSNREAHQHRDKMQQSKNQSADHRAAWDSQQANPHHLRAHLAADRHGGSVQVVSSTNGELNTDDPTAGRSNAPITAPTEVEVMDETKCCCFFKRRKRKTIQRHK
# stated-conditions: at 1 µM
Outcome label depends on inhibition relative to 2%: at/above gives TRUE, below gives FALSE.

[[record]]
test_smiles = "Cc1c2ccc(N(C)c3ccnc(Nc4cccc(S(N)(=O)=O)c4)n3)cc2nn1C"
answer_label = "FALSE"

[[record]]
test_smiles = "CCOc1ccc2c(-c3ccnc(Nc4cc(OC)cc(C(F)(F)F)c4)n3)cnn2n1"
answer_label = "TRUE"

[[record]]
test_smiles = "O=C(O[C@H]1CN[C@H](C#Cc2cc3ncnc(Nc4ccc5c(cnn5Cc5ccccc5)c4)c3s2)C1)N1CCOCC1"
answer_label = "FALSE"

[[record]]
test_smiles = "COc1cc(N2CCN(C(C)C)CC2)ccc1Nc1nc(Nc2cccc(F)c2C(=O)O)c2cc[nH]c2n1"
answer_label = "TRUE"

[[record]]
test_smiles = "CN(C)CCNC(=O)Nc1ccc(N(C)c2ccnc(Nc3ccc(CS(C)(=O)=O)cc3)n2)cc1"
answer_label = "TRUE"

[[record]]
test_smiles = "O=C(Nc1n[nH]c2nnc(-c3cccnc3)cc12)C1CC1"
answer_label = "FALSE"


INPUT: State whether the measured inhibition reaches 2%, counting equality as reaching it, for CN(c1ccc(NC(=O)NCCN2CCOCC2)cc1)c1ccnc(Nc2ccc(CS(C)(=O)=O)cc2)n1
OUTPUT: TRUE

INPUT: State whether the measured inhibition reaches 2%, counting equality as reaching it, for COc1ccccc1-c1cc(/C=C2\C(=O)Nc3ncc(Br)cc32)cc(Br)c1O
OUTPUT: TRUE

INPUT: State whether the measured inhibition reaches 2%, counting equality as reaching it, for O=C(O[C@H]1CN[C@H](C#Cc2cc3ncnc(Nc4ccc(OCc5cccc(F)c5)c(Cl)c4)c3s2)C1)N1CCOCC1
OUTPUT: TRUE

INPUT: State whether the measured inhibition reaches 2%, counting equality as reaching it, for Cc1cc(O)cc(C)c1/C=C/c1cncc(C(N)=O)c1
OUTPUT: TRUE

INPUT: State whether the measured inhibition reaches 2%, counting equality as reaching it, for FC(F)(F)CNc1nccc(-c2cnn3ncccc23)n1
OUTPUT: TRUE
